Tested on: Plasmodium berghei
testSummary: Screen against P. berghei liver stage (PbLuc), transformed with Luciferase, at 10uM
Format: functional, HepG2
appliedConditions: tested at 10 uM
About 8,600 (12%) of roughly 69,000 compounds showed an effect of 50% or more. Only a selection was taken, and strong results are over-represented in it overall.
A collection of compounds and their measured INHIBITION
Include the unit right after the number.

Some entries whose results are on file:
>>> valuemeasured("CCc1cnc(CN(C(C)=O)C2CCN(Cc3nccn3C)C2)o1 (stereo not drawn)")
"-6.865%"
>>> valuemeasured("c1ccc(CN2CCc3c(COCC4CC4)cncc3C2)nc1")
"23.5%"
>>> valuemeasured("Cc1ccoc1C1=NNC(=CN2CCOC(Cn3cccn3)C2)O1 (stereo not drawn)")
"-50.5%"
>>> valuemeasured("Cn1cccc1C(=O)NC[C@]12COC[C@H]1CN(Cc1nccs1)C2")
"-30.6%"

Under Plasmodium berghei: INHIBITION value of COCCN1CCN(C=C2NN=C(c3occc3C)O2)CC1 ?
43.4%

Write down the reported INHIBITION of O=C([C@H]1CC[C@@H]2[C@@H](CCN2C2CCCCC2)O1)N1CCOCC1 , test system: Plasmodium berghei.
20.6%

Notebook: pull reported INHIBITION for Plasmodium berghei, entry O=C(NCc1nn(-c2ccccc2)c2c1CCC2)C1CC1
59.55%

Notebook entry, Plasmodium berghei assay: INHIBITION of O=C1CC2(CCN(CC3CC3)C2)CN1c1ccc2c(c1)OCO2 (stereo not drawn) = ?
25%

Cited source for all entries: ChEMBL document CHEMBL4513216
